Test system: Streptococcus pneumoniae (ATCC6305)
Assay: Microtitre plate assay, IC90 for bacterial growth
Assay type: cell-based
Conditions: Streptococcus pneumoniae, ATCC6305, 90% inhibitory concentration for bacterial growth, read-out: IC90 SPN 6305
observed-property: IC90 (µg/mL)

As a guide, the following entries are already answered.
COc1nc2ccc(Cl)cc2cc1C(c1ccccc1)C1(c2cccc3ccccc23)CCN(C)CO1 (single isomer, unassigned)
12.8
COc1nc2ccc(Br)cc2cc1C(c1ccccc1)C1(C2=CC=CCC2)CCN(C)CO1 (single isomer, unassigned)
12.7
COc1nc2ccc(Br)cc2cc1C(c1ccccc1)C1(c2cccc3ccccc23)CC[N+](C)(C)CO1.[I-] (single isomer, unassigned)
1.8

a = COc1nc2ccc(-c3ccccc3)cc2cc1C(c1ccccc1)C1(c2cccc3ccccc23)CCN(C)CO1 (single isomer, unassigned)
b = COc1ccc2nc(OC)c(C(c3ccccc3)C3(c4cccc5ccccc45)CCN(C)CO3)cc2c1 (single isomer, unassigned)
c = COc1nc2ccc(Br)cc2cc1C(c1ccc(Cl)cc1)C1(c2cccc3ccccc23)CCN(C)CO1 (single isomer, unassigned)
[ask] Form: Sort by [IC90] Order [ ascending ] Use the labels to give the requested order.
[reply] b, a, c
(b: 1 µg/mL, a: 4.9 µg/mL, c: 13.2 µg/mL)

* * *

Tested on: Streptococcus pyogens (ATCC8668)
Assay: Microtitre plate assay, IC90 for bacterial growth
Type: cell-based
Conditions: Streptococcus, ATCC8668, 90% inhibitory concentration for bacterial growth, read-out: IC90 SPY 8668
observed-property: IC90 (µg/mL)

As a guide, the following entries are already answered.
COc1nc2ccc(-c3ccco3)cc2cc1C(c1ccccc1)C1(c2cccc3ccccc23)CCN(C)CO1 (single isomer, unassigned)
13.6
COc1ccc2nc(OC)c(C(c3ccccc3)C3(c4cccc5ccccc45)CCN(C)CO3)cc2c1 (single isomer, unassigned)
20.1
CC[N+]1(C)CCC(c2cccc3ccccc23)(C(c2ccccc2)c2cc3cc(Br)ccc3nc2OC)OC1.[I-] (single isomer, unassigned)
1.8
COc1nc2ccc(Cl)cc2cc1C(c1ccccc1)C1(c2cccc3ccccc23)CCN(C)CO1 (single isomer, unassigned)
12.8
COc1nc2ccc(-c3ccccc3)cc2cc1C(c1ccccc1)C1(c2cccc3ccccc23)CCN(C)CO1 (single isomer, unassigned)
55.1

1 = COc1nc2ccc(Br)cc2cc1C(c1ccc(Cl)cc1)C1(c2cccc3ccccc23)CCN(C)CO1 (single isomer, unassigned)
2 = COc1nc2ccc(Cl)cc2cc1C(c1ccccc1)C1(c2cccc3ccccc23)CC[N+](C)(C)CO1.[I-] (single isomer, unassigned)
[ask] Between 1 and 2 , which one shows the larger IC90 value? Field: selected label. Fill in the label of the entry you choose.
[reply] 1

P = COc1nc2ccc(Br)cc2cc1C(c1ccccc1)C1(C2=CC=CCC2)CCN(C)CO1 (single isomer, unassigned)
Q = COc1nc2ccc(Br)cc2cc1C(c1ccccc1)C1(c2cccc3ccccc23)CC[N+](C)(C)CO1.[I-] (single isomer, unassigned)
[ask] Pick one, P or Q : lowest reported IC90. Field: selected label. Fill in the label of the entry you choose.
[reply] Q
(Q: 1.8 µg/mL, P: 12.7 µg/mL)

* * *

Tested on: Streptococcus pyogens (ATCC8668)
Assay: Microtitre plate assay, IC90 for bacterial growth
Format: cell-based
Details: 90% inhibitory concentration for bacterial growth
observed-property: IC90 SPY 8668 (µg/mL)

As a guide, the following entries are already answered.
COc1nc2ccc(Br)cc2cc1C(c1ccc(Cl)cc1)C1(c2cccc3ccccc23)CCN(C)CO1 (single isomer, unassigned)
14.8
COc1nc2ccc(-c3ccccc3)cc2cc1C(c1ccccc1)C1(c2cccc3ccccc23)CCN(C)CO1 (single isomer, unassigned)
55.1
COc1ccc2nc(OC)c(C(c3ccccc3)C3(c4cccc5ccccc45)CCN(C)CO3)cc2c1 (single isomer, unassigned)
10.1
COc1nc2ccc(-c3ccco3)cc2cc1C(c1ccccc1)C1(c2cccc3ccccc23)CCN(C)CO1 (single isomer, unassigned)
10.8
CC[N+]1(C)CCC(c2cccc3ccccc23)(C(c2ccccc2)c2cc3cc(Br)ccc3nc2OC)OC1.[I-] (single isomer, unassigned)
2.1
COc1nc2ccc(Cl)cc2cc1C(c1ccccc1)C1(c2cccc3ccccc23)CC[N+](C)(C)CO1.[I-] (single isomer, unassigned)
1.9
COc1nc2ccc(Br)cc2cc1C(c1ccccc1)C1(c2cccc3ccccc23)CCN(C)CO1 (single isomer, unassigned) [Compound 7]
13.9

1 = COc1nc2ccc(C)cc2cc1C(c1ccccc1)C1(c2cccc3ccccc23)CCN(C)CO1 (single isomer, unassigned) [Compound 11]
2 = COc1nc2ccc(Br)cc2cc1C(c1ccccc1)C1(c2cccc3ccccc23)CCN(C)CO1 (single isomer, unassigned) [Compound 1]
3 = COc1nc2ccc(Br)cc2cc1C(c1ccccc1)C1(c2cccc3ccccc23)CC[N+](C)(C)CO1.[I-] (single isomer, unassigned)
4 = COc1nc2ccc(C)cc2cc1C(c1ccccc1)C1(c2cccc3ccccc23)CCN(C)CO1 (single isomer, unassigned) [Compound 5]
[ask] Form: Sort by [IC90 SPY 8668] Order [ ascending ] Use the labels to give the requested order.
[reply] 3, 4, 1, 2
(3: 1.8 µg/mL, 4: 8.7 µg/mL, 1: 19.5 µg/mL, 2: 44.0 µg/mL)

* * *

Test system: methicilline resistant Staphylococcus aureus (MRSA) (a clinical isolate from the University of Antwerp)
Experiment: Microtitre plate assay, IC90 for bacterial growth
Assay type: cell-based
Conditions: Staphylococcus aureus, MRSA, 90% inhibitory concentration for bacterial growth, read-out: IC90 STA RMETHIC
observed-property: IC90 (µg/mL)
Numeric answer only, unit µg/mL assumed.

As a guide, the following entries are already answered.
COc1nc2ccc(C)cc2cc1C(c1ccccc1)C1(c2cccc3ccccc23)CCN(C)CO1 (single isomer, unassigned) [Compound 5]
48.9
COc1ccc2nc(OC)c(C(c3ccccc3)C3(c4cccc5ccccc45)CCN(C)CO3)cc2c1 (single isomer, unassigned) [Compound 4]
50.5

Continue with the molecule presented below.
IC90 reading for COc1nc2ccc(Br)cc2cc1C(c1ccccc1)C1(c2cccc3ccccc23)CCN(C)CO1 (single isomer, unassigned) [Compound 1] : 55.4

* * *

Test system: Staphylococcus aureus (ATCC29213)
Assay: Microtitre plate assay, IC90 for bacterial growth
Assay type: cell-based
Details: 90% inhibitory concentration for bacterial growth, 24 hours at 37° C., resazurin
Method: The bacteria used in this study were grown overnight in flasks containing 100 ml Mueller-Hinton Broth (Becton Dickinson—cat. no. 275730) in sterile de-ionized water, with shaking, at 37° C. Stocks (0.5 ml/tube) were stored at 70° C. until use. Bacteria titrations were performed in microtiter plates and colony forming units (CFUs) were determined. In general, an inoculum level of approximately 100 CFUs was used for susceptibility testing. Anti bacterial Susceptibility Testing: IC90 Determination […]
observed-property: IC90 STA 29213 (µg/mL)

As a guide, the following entries are already answered.
COc1nc2ccc(Br)cc2cc1C(c1ccccc1)C1(c2cccc3ccccc23)CCN(C)CO1 (single isomer, unassigned) [Compound 1]
55.4
CC[N+]1(C)CCC(c2cccc3ccccc23)(C(c2ccccc2)c2cc3cc(Br)ccc3nc2OC)OC1.[I-] (single isomer, unassigned) [Compound 20]
0.5
COc1nc2ccc(Cl)cc2cc1C(c1ccccc1)C1(c2cccc3ccccc23)CC[N+](C)(C)CO1.[I-] (single isomer, unassigned) [Compound 15]
1.86
COc1nc2ccc(Br)cc2cc1C(c1ccc(Cl)cc1)C1(c2cccc3ccccc23)CCN(C)CO1 (single isomer, unassigned) [Compound 21]
14.8

a = COc1nc2ccc(C)cc2cc1C(c1ccccc1)C1(c2cccc3ccccc23)CCN(C)CO1 (single isomer, unassigned) [Compound 11]
b = COc1nc2ccc(Br)cc2cc1C(c1ccccc1)C1(c2cccc3ccccc23)CCN(C)CO1 (single isomer, unassigned) [Compound 7]
[ask] Between a and b , which one shows the larger IC90 STA 29213 value? Field: selected label. Fill in the label of the entry you choose.
[reply] a

* * *

System: Bacillus subtilis (ATCC43639)
Assay: Microtitre plate assay, IC90 for bacterial growth
Type: cell-based
Details: Bacillus subtilis, ATCC43639, 90% inhibitory concentration for bacterial growth, read-out: IC90 BSU 43639
Experimental: The bacteria used in this study were grown overnight in flasks containing 100 ml Mueller-Hinton Broth (Becton Dickinson—cat. no. 275730) in sterile de-ionized water, with shaking, at 37° C. Stocks (0.5 ml/tube) were stored at 70° C. until use. Bacteria titrations were performed in microtiter plates and colony forming units (CFUs) were determined. In general, an inoculum level of approximately 100 CFUs was used for susceptibility testing. Anti bacterial Susceptibility Testing: IC90 Determination […]
observed-property: IC90 (mg/L)

As a guide, the following entries are already answered.
COc1nc2ccc(-c3ccccc3)cc2cc1C(c1ccccc1)C1(c2cccc3ccccc23)CCN(C)CO1 (single isomer, unassigned)
55.1
COc1nc2ccc(Br)cc2cc1C(c1ccccc1)C1(C2=CC=CCC2)CCN(C)CO1 (single isomer, unassigned)
12.7
COc1nc2ccc(Br)cc2cc1C(c1ccccc1)C1(c2cccc3ccccc23)CCN(C)CO1 (single isomer, unassigned)
44
COc1nc2ccc(-c3ccco3)cc2cc1C(c1ccccc1)C1(c2cccc3ccccc23)CCN(C)CO1 (single isomer, unassigned)
13.6

1 = COc1nc2ccc(Cl)cc2cc1C(c1ccccc1)C1(c2cccc3ccccc23)CCN(C)CO1 (single isomer, unassigned)
2 = COc1nc2ccc(C)cc2cc1C(c1ccccc1)C1(c2cccc3ccccc23)CCN(C)CO1 (single isomer, unassigned)
[ask] Pick one, 1 or 2 : lowest reported IC90. Field: selected label. Fill in the label of the entry you choose.
[reply] 1

Attribution: patent US8691800B2
